Ratio (T1/2 Compound/T1/2 Reference) overview
Target: Cathepsin B (Homo sapiens, UniProt P07858)
Construct: purchased R&D Systems, Bio-Techne AG 953-CY-010
Assay: Cat B-induced cleavage, in vitro enzymatic cleavage assay with UHPLC-MS/MS
Format: biochemical
Conditions: versus Cys-MC-Val-Cit-PABC-MMAF
Non-standard residues stand in square brackets, D forms with d. Residues, ends and D or L forms follow the SMILES beside them. Groups on a side chain read outwards from the residue. *: point of attachment. DM1Mal(CH2)2CO = COc1cc2cc(c1Cl)N(C)C(=O)C[C@H](OC(=O)[C@H](C)N(C)C(=O)CCSC1CC(=O)N(CCC(=O)*)C1=O)[C@]1(C)O[C@H]1[C@H](C)[C@@H]1C[C@@](O)(NC(=O)O1)[C@H](OC)/C=C/C=C(\C)C2; X2 = CC(=O)N[C@@H](CSC1CC(=O)N(CCC(=O)*)C1=O)C(=O)O; Cit = NC(=O)NCCC[C@H](N)C(=O)O; PEG4 = NCCOCCOCCOCCOCCC(=O)O
The reply should be a number, written without any unit.

Dear colleague, I am looking for the recorded Ratio (T1/2 Compound/T1/2 Reference) of the following molecule: COc1cc2cc(c1Cl)N(C)C(=O)C[C@H](OC(=O)[C@H](C)N(C)C(=O)CCSC1CC(=O)N(CCC(=O)N[C@@H](Cc3ccccc3)C(=O)N[C@@H](CCCNC(N)=O)C(=O)N[C@@H](CCCCNC(=O)CCOCCOCCOCCOCCNC(=O)CCN3C(=O)CC(SC[C@H](NC(C)=O)C(=O)O)C3=O)C(=O)N[C@@H](Cc3ccccc3)C(=O)O)C1=O)[C@]1(C)O[C@H]1[C@H](C)[C@@H]1C[C@@](O)(NC(=O)O1)[C@H](OC)/C=C/C=C(\C)C2 (some centres unmarked) [compound 6] ({DM1Mal(CH2)2CO}-F[Cit]K([PEG4-X2])F-OH) 0.02

Dear colleague, I am looking for the recorded Ratio (T1/2 Compound/T1/2 Reference) of the following molecule: COc1cc2cc(c1Cl)N(C)C(=O)C[C@H](OC(=O)[C@H](C)N(C)C(=O)CCSC1CC(=O)N(CCC(=O)N[C@@H](Cc3ccccc3)C(=O)N[C@@H](CCCCN)C(=O)N[C@@H](CCCCNC(=O)CCOCCOCCOCCOCCNC(=O)CCN3C(=O)CC(SC[C@H](NC(C)=O)C(=O)O)C3=O)C(=O)N[C@@H](Cc3ccccc3)C(=O)O)C1=O)[C@]1(C)O[C@H]1[C@H](C)[C@@H]1C[C@@](O)(NC(=O)O1)[C@H](OC)/C=C/C=C(\C)C2 (some centres unmarked) [compound 5] ({DM1Mal(CH2)2CO}-FKK([PEG4-X2])F-OH) 0.05
